molecular target: Luciferin 4-monooxygenase (Photinus pyralis); assay: firefly luciferase enzyme inhibitors, primary screen, biochemical, luminescence, purified enzyme, 2006 set (AID 1141); details: SteadyGlo luminescence, 30 min, higher = more signal, called active from +8 up or from −8 down;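 also: cell-free assay with purified firefly luciferase at 100 ng per well in PBS; test concentration not given here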
Recorded z-score values for a group of molecules are listed next.
measured parameter: z-score

[
  {
    "smiles representation": "CCOC(=O)NN=C1C[C@@H](O)[C@@H](O)[C@@H]2[C@@H]3C(=O)N(Cc4ccc5c(c4)OCO5)C(=O)[C@@H]3CC[C@H]12",
    "measured parameter": "z-score",
    "numeric readout": 1.12
  },
  {
    "smiles representation": "CC(=O)OC[C@H]1O[C@H](C#Cc2ccccc2)C=C[C@@H]1OC(C)=O",
    "measured parameter": "z-score",
    "numeric readout": -2.26
  },
  {
    "smiles representation": "COc1ccc(O[C@H]2C=C[C@@H](c3ccccc3)O[C@@H]2CON=C(C)C)cc1",
    "measured parameter": "z-score",
    "numeric readout": 0.409
  },
  {
    "smiles representation": "COC(=O)CC=C[C@@H](C)[C@@H](C=NO[C@@H]1O[C@H](COC(C)=O)[C@@H](OC(C)=O)[C@H](OC(C)=O)[C@H]1OC(C)=O)OC",
    "measured parameter": "z-score",
    "numeric readout": 0.86
  },
  {
    "smiles representation": "COc1ccc(O[C@@H]2[C@H](O)CO[C@@H]2C=Cc2ccccc2)cc1",
    "measured parameter": "z-score",
    "numeric readout": -0.451
  }
]

---

assay: A549 cell viability effects, profiling panel, calcein-AM fluorescence, 48 h, basal (AID 1162); conditions: higher = more signal; also: test concentration not given here
Answer rule not met if z-score is under 0.1, and rule met if it is 0.1 or more.

[
  {
    "compound": "C[C@H]1CC[C@H]2C(=O)OC(CO)CN2[C@@H]1c1ccc(Br)cc1 (some centres not stated)",
    "classification": "rule met"
  },
  {
    "compound": "CC(C)CON=C1C[C@@H](O)[C@@H](O)[C@@H]2[C@@H]3C(=O)N(Cc4ccc5c(c4)OCO5)C(=O)[C@@H]3CC[C@H]12",
    "classification": "rule not met"
  },
  {
    "compound": "O=C1[C@H]2[C@H]3[C@H](O)[C@H](O)CC(=NOC[C@@H](O)COCc4ccco4)[C@H]3CC[C@H]2C(=O)N1c1ccc(F)cc1F",
    "classification": "rule met"
  },
  {
    "compound": "CC(C)CON=C1[C@H]2CCn3c(=O)n(Cc4cc5c(cc4Cl)OCO5)c(=O)n3[C@H]2[C@H](O)[C@@H]2O[C@H]12",
    "classification": "rule not met"
  },
  {
    "compound": "O=C1[C@H]2[C@H]3[C@H](O)[C@H](O)CC(=NOC[C@@H](O)COCc4ccco4)[C@H]3CC[C@H]2C(=O)N1C[C@@H]1CCCO1",
    "classification": "rule not met"
  },
  {
    "compound": "CCC(=O)[C@@]1(O)C(=O)N2C(=C3C(=O)OCC[C@@H]31)N(Cc1ccccc1)C(C)=C(C(=O)OC)[C@H]2c1ccccc1",
    "classification": "rule not met"
  },
  {
    "compound": "COCCNC(=O)OCC1CCCC2(CC(OC(=O)NCc3ccc4c(c3)OCO4)CC(CCC(=O)N[C@@H](C)C(=O)OC)O2)O1 (some centres not stated)",
    "classification": "rule met"
  }
]
